Cited source: patent US20260356856A1

Molecular target: KRas G12C (Homo sapiens, UniProt P01116, G12C)
Construct: Biotinylated KRas (corresponding to amino acids 1-169, produced at Accelegan Inc.); biotin (biotinylated); purchased Accelegan Inc
Sequence (P01116 1-169 isoform P01116-2 G12C): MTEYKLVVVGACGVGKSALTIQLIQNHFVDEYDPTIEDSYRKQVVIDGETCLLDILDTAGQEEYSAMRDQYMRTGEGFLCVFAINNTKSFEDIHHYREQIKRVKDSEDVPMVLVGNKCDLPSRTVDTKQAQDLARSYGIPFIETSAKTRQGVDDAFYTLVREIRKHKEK
Assay: KRas binding assay, TR-FRET displacement of Cy5 labelled tracer
Details: 60-minute incubation at room temperature, 1% DMSO, pH 7.5
Please provide measured IC50 for the entries that follow.
Give the value, in units of nM, as a plain number.

Can you look up the measured IC50 of Cc1ccn(C(=O)C2CCCN(c3nc(OC[C@@]45CCCN4C[C@H](F)C5)nc4c(F)c(-c5ccc(F)c6sc(N)c(C#N)c56)c(Cl)cc34)C2)n1 (stereo partly drawn) [Example 132] for me?
19

Next: CCc1c(F)ccc2cc(O)cc(-c3ncc4c(N(C)CCC(=O)N(C)C(C)=O)nc(OC[C@@]56CCCN5C[C@H](F)C6)nc4c3F)c12 [Example 273]
30

Consider next the compound CCc1c(F)ccc2cc(O)cc(-c3ncc4c(N5CCN(C(=O)n6ccc(C)n6)C(CC#N)C5)nc(OC[C@@]56CCCN5C[C@H](F)C6)nc4c3F)c12 (stereo partly drawn) [Example 126] in the same way.
84

Can you handle Cc1ccn(C(=O)C2CCN(c3nc(OC[C@@]45CCCN4C[C@H](F)C5)nc4c(F)c(-c5ccc(F)c6sc(N)c(C#N)c56)c(Cl)cc34)C2)n1 (stereo partly drawn) [Example 139] next?
5

Lookup CCc1c(F)ccc2cc(O)cc(-c3ncc4c(N5CCC(C(=O)n6cc(N(C)C)cn6)CC5)nc(OC[C@@]56CCCN5C[C@H](F)C6)nc4c3F)c12 [Example 64]
13

And N#Cc1ccccc1OC(=O)[C@@H]1[C@@H]2CC[C@H]1CN(c1nc(OCC34CCCN3CCC4)nc3c(F)c(-c4cccc5cccc(F)c45)ncc13)C2 [Example 21] ?
15900

Next compound: CCc1c(F)ccc2cc(O)cc(-c3ncc4c(N5CC(CC(=O)n6ccc(C)n6)C5)nc(OC[C@@]56CCCN5C[C@H](F)C6)nc4c3F)c12 [Example 84]
53

And then CC(=O)N(C)C(=O)CCCNc1nc(OC[C@@]23CCCN2C[C@H](F)C3)nc2c(F)c(-c3ccc(F)c4sc(N)c(C#N)c34)c(Cl)cc12 [Example 258] , what is it?
3

Let us now turn to CCc1c(F)ccc2cc(O)cc(-c3ncc4c(N5CCC(C(=O)N(C)C(C)=O)C5)nc(OC[C@@]56CCCN5C[C@H](F)C6)nc4c3F)c12 (stereo partly drawn) [Example 274]
65

Query CCc1c(F)ccc2cc(O)cc(-c3ncc4c(N5CCC(COC)(C(=O)n6ccc(C)n6)C5)nc(OC[C@@]56CCCN5C[C@H](F)C6)nc4c3F)c12 (stereo partly drawn) [Example 95] next
257

====

Molecular target: KRas G12S (Homo sapiens, UniProt P01116, G12S)
Construct: Biotinylated KRas (corresponding to amino acids 1-169, produced at Accelegan Inc.); biotin (biotinylated); purchased Accelegan Inc
Sequence (P01116 1-169 isoform P01116-2 G12S): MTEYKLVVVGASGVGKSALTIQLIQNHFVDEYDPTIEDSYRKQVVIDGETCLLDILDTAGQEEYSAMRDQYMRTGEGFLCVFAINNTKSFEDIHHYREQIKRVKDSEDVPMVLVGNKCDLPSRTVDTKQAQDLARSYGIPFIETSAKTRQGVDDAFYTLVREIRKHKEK
Test: KRas binding assay, TR-FRET displacement of Cy5 labelled tracer
Conditions: 60-minute incubation at room temperature, 1% DMSO, pH 7.5
Note to self: use class 1 only for IC50 readings below 400 nM; a reading exactly at 400 nM still gets class 0.

Say whether its IC50 is strictly beneath 400 nM. Entry: CCc1c(F)ccc2cc(O)cc(-c3ncc4c(N5CCC(COC)(C(=O)n6ccc(C)n6)C5)nc(OC[C@@]56CCCN5C[C@H](F)C6)nc4c3F)c12 (stereo partly drawn)
class 0

Same read-out for "CCc1c(F)ccc2cc(O)cc(-c3ncc4c(N5CCC(C(=O)Oc6ccc(F)c(F)c6)CC5)nc(OC[C@@]56CCCN5C[C@H](F)C6)nc4c3F)c12" ?
class 0

// repeat for "CCc1c(F)ccc2cc(O)cc(-c3ncc4c(N5CCCN(C(=O)n6ccc(C)n6)CC5)nc(OC[C@@]56CCCN5C[C@H](F)C6)nc4c3F)c12" and report
class 1

Would you mind doing "COc1ccccc1OC(=O)C1CCN(c2nc(OC[C@@]34CCCN3C[C@H](F)C4)nc3c(F)c(-c4ccc(F)c5sc(N)c(C#N)c45)c(Cl)cc23)CC1" as well?
class 1

Then this molecule: CCc1c(F)ccc2cc(O)cc(-c3ncc4c(N5CCC(C(=O)n6ccc(C)n6)C5)nc(OC[C@@]56CCCN5C[C@H](F)C6)nc4c3F)c12 (stereo partly drawn)
class 1

Then this molecule: "CCc1c(F)ccc2cc(O)cc(-c3ncc4c(N5CCC(C(=O)N(C)S(C)(=O)=O)CC5)nc(OC[C@@]56CCCN5C[C@H](F)C6)nc4c3F)c12"
class 0

Please do the same for CC(=O)N(C)C(=O)C1CCN(c2nc(OC[C@@]34CCCN3C[C@H](F)C4)nc3c(F)c(-c4ccc(F)c5sc(N)c(C#N)c45)c(Cl)cc23)CC1 [Example 253] as well.
class 1

Please give the result for "CCc1c(F)ccc2cc(O)cc(-c3ncc4c(N5CCC(C(=O)NC(C)=O)CC5)nc(OC[C@@]56CCCN5C[C@H](F)C6)nc4c3F)c12" too.
class 1

// next record CN(CCN(C)c1nc(OC[C@@]23CCCN2C[C@H](F)C3)nc2c(F)c(-c3ccc(F)c4sc(N)c(C#N)c34)c(Cl)cc12)C(=O)n1nccn1 (single isomer, unassigned)
class 1

Could you do the same for "CCc1c(F)ccc2cc(O)cc(-c3ncc4c(N5C[C@H]6C[C@@H](C5)[C@H](C(=O)n5ccc(C)n5)C6)nc(OC[C@@]56CCCN5C[C@H](F)C6)nc4c3F)c12" , please?
class 0

Input "CCc1c(F)ccc2cc(O)cc(-c3ncc4c(N5CCC(C(=O)OC)CC5)nc(OC[C@@]56CCCN5C[C@H](F)C6)nc4c3F)c12"
class 1

Now consider "COC(=O)C1CCN(c2nc(OCC34CCCN3CCC4)nc3c(F)c(-c4cccc5cccc(F)c45)ncc23)CC1" and answer again.
class 0
